method_notes: physchem
Measured logP of individual entries
Give the figure by itself; no unit, no explanation.

CC(=O)OCC(C)(C)[C@@H](O)C(=O)NCCC(=O)NCCSSSCCNC(=O)CCNC(=O)[C@H](O)C(C)(C)COC(C)=O [Ac-PTN-SSS] ... 0.91

Now take the following molecule into account.
Q) Dear colleague, I am looking for the recorded logP of the following molecule: CC1(C)OCC(C)(C)[C@H](C(=O)NCCC(=O)NCCSSSCCNC(=O)CCNC(=O)[C@@H]2OC(C)(C)OCC2(C)C)O1 [Acetonide-PTN-SSS]
A) 1.56
